- System: Botulinum neurotoxin type F light chain protease (Clostridium botulinum)
- Assay text: Botulinum neurotoxin type F light chain protease inhibition, multiplex microsphere flow cytometry, validation set (AID 588459)
- Conditions: multiplex microsphere protease substrate cleavage assay, at 10 µM, stronger effect = higher value

Molecule	Readout units	inhibition
COc1ccc(C2NCCC3(O)CCCCC23)c(OC)c1OC (stereo not drawn)	%	4.3
CC[C@]1(O)CC2CN(CCc3c([nH]c4ccccc34)[C@@](C(=O)OC)(c3cc4c(cc3OC)N(C=O)[C@H]3[C@@](O)(C(=O)OC)[C@H](OC(C)=O)[C@]5(CC)C=CCN6CC[C@]43[C@@H]65)C2)C1 (stereo partly drawn)	%	1.5
CN(C)CCOC(=O)C(c1ccccc1)C1(O)CCCC1 (stereo not drawn)	%	2.3
C=CCC1(Cl)C(=O)C(Cl)=C(N2CCOCC2)C1(OC)OC (stereo not drawn)	%	-1.2
O=C(CCNNC(=O)c1ccncc1)NCc1ccccc1	%	4.1
COc1ccc(NC(=O)C2CCCN2C(=O)OC(C)(C)C)cc1 (stereo not drawn)	%	4.1
Cc1ccc2c(ccc(=S)n2C)c1	%	1.7
COc1c2occc2c(OC)c2c(=O)cc(C(F)(F)C(F)(F)F)oc12	%	2.3
C[C@H](NC(=O)Nc1ccccc1F)C(=O)O	%	-3.8
COc1ccc(C(=O)Nc2ccc(OC)c([N+](=O)[O-])c2)cc1Br	%	1.7
O=C(NC(=S)Nc1ccc(N2CCN(C(=O)c3ccccc3)CC2)cc1)c1cccs1	%	-8.9
C/C(=N\NC(=O)c1ccccc1[N+](=O)[O-])c1ccc(Br)s1	%	1.5
O=C(c1ccc(O)cc1)c1ccc(O)cc1O	%	-0.9
CNCCC=C1c2ccccc2CCc2ccccc21	%	-4.9
Cc1ccccc1NC(=O)NCCc1c[nH]c2ccccc12	%	-1.9
N#Cc1c2c(c(-c3ccccc3)[nH]c1=O)CCCC2	%	-7.4
C1COC(NC(C2CC2)C2CC2)=N1	%	3
Nc1cccc2nc3ccccc3cc12	%	4
Cc1ccccc1NC(=O)C1(C)Cc2ccccc2C(=O)O1 (stereo not drawn)	%	0.3
CN1CCN(CC/C=C2/c3ccccc3Sc3ccc(S(=O)(=O)N(C)C)cc32)CC1	%	3.2
COc1cc(C2NCCc3c2[nH]c2ccccc32)ccc1OC(C)C (stereo not drawn)	%	1.4
Cc1nc2sccn2c(=O)c1CCN1CCC(=C(c2ccc(F)cc2)c2ccc(F)cc2)CC1	%	-6
CCNC(=O)c1sc2cc(C)ccc2c1Cl	%	2.4

* * *

Entries and their percent response of DMSO control values follow.
- Assay text: modulators of CIT2-GFP expression in yeast, primary screen, S. cerevisiae, GFP fusion, multiplex flow cytometry (AID 1870)
- Conditions: 3 h, at 10 µM, stronger effect = higher value
Property name: percent response of DMSO control (%)

Compound	Test result
c1ccc2c3c([nH]c2c1)CNCC3	106
O=C1C(=O)c2ccccc2-c2ccccc21	92.9
C[N+](C)(C)Cc1ccccc1	106
C=CC1CN2CCC1CC2[C@@H](OC(=O)c1ccc(OC)cc1)c1ccnc2ccccc12 (stereo partly specified)	107
CCC1(c2ccccc2)C(=O)N(COC)C(=O)N(COC)C1=O	103
CCNC(=S)N(C)CCc1cc2c(c(OC)c1C=C1C(=O)N(C)C(=O)N(C)C1=O)OCO2	91
O=c1cccc2n1C[C@H]1C[C@@H]2CN2CCCC[C@@H]12	94.8
CN1C2CCC1CC(OC(=O)c1ccc(Cl)cc1)C2 (stereo unspecified)	98.6
COc1cccc(Oc2c(C)oc3cc(OC(=O)N(C)C)ccc3c2=O)c1	107
CCOC(=O)c1cncn1C(C)c1ccccc1 (stereo unspecified)	106
CN(C)[C@@H]1C(=O)C(C(N)=O)=C(O)[C@@]2(O)C(=O)C3=C(O)c4c(O)cccc4[C@@](C)(O)[C@H]3[C@H](O)[C@@H]12	105
